Value source: ChEMBL document CHEMBL1201862

system: MDA-MB-435; experiment: NCI tumour cell line growth inhibition, 48 h
Activity calls are given as the source filed them. Cut-off read from the data, not from the text of the source: active = GI50 up to about 1.1 µM and inactive = higher.
Give one outcome, nothing more. List: Y = active, N = inactive

| Molecule | Experimental Target | Label |
| --- | --- | --- |
| O=C(C[n+]1ccccc1)N/N=C(\C(=O)NC1=C(Cl)C(=O)c2ccccc2C1=O)c1c(O)c2ccc(O)cc2oc1=O | MDA-MB-435 | N |
| CC(C)COP(C)(=O)C(N)(C(F)(F)F)C(F)(F)F (stereo not given) | MDA-MB-435 | N |
| CC(C)OCC(O)COc1ccc2ccc(=O)oc2c1 (stereo not given) | MDA-MB-435 | N |

Request: Call for entry CN1CCN(c2nc3cc(F)ccc3n3cccc23)CC1 :
Result: N

Request: Call for entry O=C1c2c(O)cccc2Cc2cccc(O)c21 [ANTHRALIN] :
Result: Y
